Reference for the values: ChEMBL document CHEMBL3885881

Species: Rattus norvegicus
Experiment: DrugMatrix - Regimen: Daily Repeat
Assay type: toxicity, organism-based, Sprague-Dawley
Design: regimen Daily Repeat, gender Male, age 6-8 weeks
Settings: in vivo, po, 1500 mg/kg, 72 h, tissue Blood, route oral GAVAGE, dose level High, time 3 day, vehicle .5 % CMC
readout: LEUKOCYTE COUNT (x10E3/uL)
Entry rule: numbers only, all in x10E3/uL.

Example results:
Cc1ccc(S(=O)(=O)NC(=O)NN2CC3CCCC3C2)cc1 (configuration not stated) [GLICLAZIDE] : 17.43
O=C(N[C@H](CO)[C@H](O)c1ccc([N+](=O)[O-])cc1)C(Cl)Cl [CHLORAMPHENICOL] : 15.8
CNC(=C[N+](=O)[O-])NCCSCc1ccc(CN(C)C)o1 [RANITIDINE] : 16.6
CO[C@H]1/C=C/O[C@@]2(C)Oc3c(C)c(O)c4c(c3C2=O)C2=NC3(CCN(CC(C)C)CC3)NC2=C(NC(=O)/C(C)=C\C=C\[C@H](C)[C@H](O)[C@@H](C)[C@@H](O)[C@@H](C)[C@H](OC(C)=O)[C@@H]1C)C4=O [RIFABUTIN] : 15.23
NC(=O)c1cnccn1 [PYRAZINAMIDE] : 10.23

Quick check: LEUKOCYTE COUNT of C[C@]1(Cn2ccnn2)[C@H](C(=O)O)N2C(=O)C[C@H]2S1(=O)=O [TAZOBACTAM] ?
13.67

Need LEUKOCYTE COUNT of Cc1cc(=O)n(-c2ccccc2)n1C [ANTIPYRINE] , thanks.
16.03
